Where these numbers come from: ChEMBL document CHEMBL4477267

- assayed-system: Nuclear receptor ROR-gamma (Homo sapiens)
- experiment-summary: Inverse agonist activity at human RORc-LBD assessed as inhibition of SRC1 co-activator peptide recruitment by FRET assay relative to apo-RORc basal activity
Entries and their measured Efficacy follow.

In [3]: df
Out[3]:
                              smiles_string                            assayed_system  value_measured
0  CC(=O)N1CCN(c2ccc(CN3[C@@H](C)CC[C@H](c4ccccc4Cl)S3(=O)=O)c(F)c2)CC1  Nuclear receptor ROR-gamma (Homo sapiens)             91%
1  COc1ccc([C@H]2CC[C@H](C)N(Cc3ccc(N4CCN(C(C)=O)CC4)cc3F)S2(=O)=O)cc1  Nuclear receptor ROR-gamma (Homo sapiens)             96%
2  CC(=O)N1CCN(c2ccc(CN3[C@@H](C)COC[C@H](c4ccccc4)S3(=O)=O)c(F)c2)CC1  Nuclear receptor ROR-gamma (Homo sapiens)            100%

// moving on: another record for Efficacy
// Efficacy lookup, molecule = CC(=O)N1CCN(c2ccc(CN3CCCC[C@H](c4ccccc4)S3(=O)=O)c(F)c2)CC1 , result: 99%
